B1: PBXIP1 (parent)
chain: LPVETLGPASRMDPESERALQAPH

Variants of: B1
Test: protein stability index of a GFP-peptide fusion (GPS, HEK-293T) (PSI 1-6); higher = more stable;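 further: lentivirally expressed fusions sorted by FACS into six bins by GFP to DsRed ratio, PSI derived from sequencing read proportions per bin multiplied by bin number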
Settings: c terminus: a fixed tail appended
measuredParameter: protein stability index
Enter the number alone.

protein stability index reported for this variant Q21E : 4.79

Measured protein stability index, Q21H : 3.92

Record summary for H24I : reported protein stability index = 3.72

The variant E15W showed protein stability index equal to 3.1

# protein stability index of P14L = 3.91

For record Q21R the listed protein stability index is 4.44

get_value(item= E17P , readout=protein stability index) returns 4.18

// sample E17R , its protein stability index was 3.91

S10R yielded protein stability index of 4.99

Recorded result, S16G , protein stability index: 4.56

Per the records, this variant ( L6Y ) has protein stability index equal to 5.53

Note to self: protein stability index recorded for V3T was 5.56

Input L6D . Output protein stability index: 5.48

The variant listed as L1G has a reported protein stability index of 5.38

The recorded protein stability index for entry A22Q equals 4.45

protein stability index in this record for S16Y : 4.05

Lab book: protein stability index of Q21M noted as 4.05

protein stability index measured on E17K = 4.19

What the record says about H24K : protein stability index is 4.5

Input P2F . Output protein stability index: 3.42

protein stability index recorded for this variant, L20D , is 4.92

The variant listed as L6W shows protein stability index equal to 4.72

Sure, the documented protein stability index for S16T is 4.35

Lab note: measured protein stability index of V3K was 5.38

Consider A22N . Its measured protein stability index is 4.5

Noted for T5N : its protein stability index reads 5.12

Form: variant = L20V ; protein stability index = 3.82

Consider A22R . Its measured protein stability index is 4.78

Documented protein stability index of S10Q : 4.88

The recorded protein stability index for entry T5E equals 5.77

Summary for this variant, E4N : protein stability index is 4.53

According to the records, this variant L6P displays protein stability index of 5.41

get_value(item= A9W , readout=protein stability index) returns 4.42

Lab note: S10E gave protein stability index of 5.28

What the record says about P8D : protein stability index is 5.46

Reported protein stability index for T5Q was 5.52

The reported value for R11V in terms of protein stability index is 4.66

protein stability index for E17L is 3.72
